Assay Remarks: AUC (0 to 48 hrs) in monkey at 1 mg/kg, iv
Format: ADME, organism-based, Macaca mulatta
Set-up: time < 48 hr, dose 1 mg/kg, route intravenous
Measurement Setup: rhesus monkey, in vivo
Parameter: AUC(0-t) at 48 h (µM·h)
// units = µM·h; emit number, no label

Entry Cc1cn2c(-c3cn[nH]c3)cnc2c(Nc2cc(C(NC(C)(C)C)c3ccccn3)ns2)n1 (single isomer, unassigned; (+)) , AUC(0-t) at 48 h reported as 5

Consider Cc1cn2c(-c3cn[nH]c3)cnc2c(Nc2cc(Cc3ccccn3)ns2)n1 . Its measured AUC(0-t) at 48 h is 1.7

----------
Parameter EC50: see the listing below.
Target System: Aurora kinase B (Homo sapiens)
Sequence (Q96GD4 whole entry): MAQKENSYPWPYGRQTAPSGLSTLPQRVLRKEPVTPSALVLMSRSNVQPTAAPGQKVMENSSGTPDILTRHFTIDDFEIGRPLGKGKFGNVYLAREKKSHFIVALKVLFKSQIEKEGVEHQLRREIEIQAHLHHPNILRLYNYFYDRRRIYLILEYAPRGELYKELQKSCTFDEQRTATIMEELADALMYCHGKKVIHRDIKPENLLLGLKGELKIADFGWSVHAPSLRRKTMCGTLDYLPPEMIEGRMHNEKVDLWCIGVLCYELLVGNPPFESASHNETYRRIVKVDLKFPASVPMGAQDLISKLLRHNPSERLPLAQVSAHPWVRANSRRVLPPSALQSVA
Assay Remarks: Inhibition of Aurora B in human HCT116 cells assessed as reduction in phosphorylation of Histone H3 at Ser10 residue incubated for 1 hr by Hoechst 33342 dye-based immunofluorescence microscopic method
Give the value, in units of nM, as a plain number.

// worked examples, EC50 included
>>> measured_number("Cc1cn2c(-c3cn[nH]c3)cnc2c(Nc2cc(Cc3ncccc3C)ns2)n1")
250
>>> measured_number("Cc1cn2c(-c3cn[nH]c3)cnc2c(Nc2cc(Cc3nccs3)ns2)n1")
170

Recorded result, Cc1cn2c(-c3cn[nH]c3)cnc2c(Nc2cc(Cc3ncccc3F)ns2)n1 , EC50: 182

Entry Cc1cn2c(-c3cn[nH]c3)cnc2c(Nc2cc(C(NC(C)(C)C)c3ccccn3)ns2)n1 (single isomer, unassigned; (-)) ; EC50 = 50

The reported value for Cc1cn2c(-c3cn[nH]c3)cnc2c(Nc2cc(Cc3ncccn3)ns2)n1 in terms of EC50 is 203

----------
Target System: Protein kinase C alpha type (Homo sapiens, UniProt P17252)
Parameter: IC50

Value sought: IC50, system Protein kinase C alpha type (Homo sapiens, UniProt P17252), item Cc1cn2c(-c3cn[nH]c3)cnc2c(Nc2cc(C(NC(C)(C)C)c3ccccn3)ns2)n1 (single isomer, unassigned; (+)) . Result: > 1000 nM

----------
Assay Remarks: Oral bioavailability in rat at 3 mg/kg
Type: ADME, organism-based
Measurement Setup: in vivo
Parameter: bioavailability (%)
The reply should contain only the number, in %.

Reported bioavailability ( Cc1cn2c(-c3cn[nH]c3)cnc2c(Nc2cc(Cc3ccccn3)ns2)n1 ) = 10

----------
Assay Remarks: Half life in rat at 10 mg/kg, iv
Assay type: ADME, organism-based
Measurement Setup: in vivo
Parameter: half-life (min)
Write the number in min without appending the unit.

Quick note, half-life for Cc1cn2c(-c3cn[nH]c3)cnc2c(Nc2cc(C(NC(C)(C)C)c3ccccn3)ns2)n1 (single isomer, unassigned; (+)) landed at 156

----------
Target System: Ephrin type-B receptor 4 (Homo sapiens)
Sequence (P54760 whole entry): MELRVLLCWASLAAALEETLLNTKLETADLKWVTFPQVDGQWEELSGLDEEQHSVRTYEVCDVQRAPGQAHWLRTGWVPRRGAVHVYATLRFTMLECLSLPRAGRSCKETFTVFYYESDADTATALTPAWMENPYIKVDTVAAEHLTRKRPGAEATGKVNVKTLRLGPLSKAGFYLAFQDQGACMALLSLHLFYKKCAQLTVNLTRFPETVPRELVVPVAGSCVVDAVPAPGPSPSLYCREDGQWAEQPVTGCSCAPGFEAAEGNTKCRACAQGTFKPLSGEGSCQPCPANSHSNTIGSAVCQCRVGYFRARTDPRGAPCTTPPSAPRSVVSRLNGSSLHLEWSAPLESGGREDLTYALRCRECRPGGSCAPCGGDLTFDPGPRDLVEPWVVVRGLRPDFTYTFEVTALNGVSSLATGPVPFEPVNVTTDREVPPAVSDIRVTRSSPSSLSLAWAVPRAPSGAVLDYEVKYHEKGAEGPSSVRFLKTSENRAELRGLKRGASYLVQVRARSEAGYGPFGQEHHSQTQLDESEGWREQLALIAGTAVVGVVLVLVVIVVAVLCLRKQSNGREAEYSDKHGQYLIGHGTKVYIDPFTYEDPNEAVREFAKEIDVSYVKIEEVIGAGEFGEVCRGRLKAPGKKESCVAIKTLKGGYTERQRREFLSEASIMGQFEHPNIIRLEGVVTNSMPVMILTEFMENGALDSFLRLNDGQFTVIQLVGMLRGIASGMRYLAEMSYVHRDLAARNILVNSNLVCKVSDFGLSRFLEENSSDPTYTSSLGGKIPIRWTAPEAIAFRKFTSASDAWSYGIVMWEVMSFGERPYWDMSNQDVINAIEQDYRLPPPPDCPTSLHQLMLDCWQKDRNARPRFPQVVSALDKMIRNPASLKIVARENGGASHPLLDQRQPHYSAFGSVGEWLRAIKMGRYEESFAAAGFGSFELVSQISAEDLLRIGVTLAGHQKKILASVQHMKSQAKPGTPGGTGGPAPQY
Parameter: IC50 (nM)
Could you give me the number in nM? Just the number is fine.

The value of IC50 measured for the compound Cc1cn2c(-c3cn[nH]c3)cnc2c(Nc2cc(C(NC(C)(C)C)c3ccccn3)ns2)n1 (single isomer, unassigned; (+)) turned out to be 38

----------
Target System: Casein kinase I isoform delta (Homo sapiens)
Sequence (P48730 whole entry, canonical isoform): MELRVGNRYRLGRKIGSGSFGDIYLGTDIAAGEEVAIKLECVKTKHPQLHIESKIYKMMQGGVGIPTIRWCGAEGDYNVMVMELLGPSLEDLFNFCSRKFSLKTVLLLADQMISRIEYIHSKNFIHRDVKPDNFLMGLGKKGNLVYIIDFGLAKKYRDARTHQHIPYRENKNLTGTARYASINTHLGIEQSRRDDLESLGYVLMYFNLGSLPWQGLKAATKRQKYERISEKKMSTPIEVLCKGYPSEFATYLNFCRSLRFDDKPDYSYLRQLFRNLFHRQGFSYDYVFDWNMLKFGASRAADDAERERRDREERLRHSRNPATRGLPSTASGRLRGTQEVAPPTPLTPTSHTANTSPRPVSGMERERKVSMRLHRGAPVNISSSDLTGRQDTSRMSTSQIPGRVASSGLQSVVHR
Assay Remarks: Inhibition of CSNK1D (unknown origin)
pIC50: −log10 of the molar value.
Parameter: pIC50

A selection of reference data follows.
>>> result("CCN(CCO)Cc1cc(Nc2nc(C)cn3c(-c4cn[nH]c4)cnc23)sn1")
"< 6.30"
>>> result("Cc1cn2c(-c3cn[nH]c3)cnc2c(Nc2cc(C(NC(C)(C)C)c3ccccn3)ns2)n1 (single isomer, unassigned; (+))")
"< 6.00"

Now turn to the next molecule.
// sample Cc1cn2c(-c3cn[nH]c3)cnc2c(Nc2cc(Cc3ccccn3)ns2)n1 , its pIC50 was < 6.30

----------
Assay Remarks: Volume of distribution in rat at 10 mg/kg, iv
Type: ADME, organism-based
Measurement Setup: in vivo
Parameter: Vd (L/kg)
All answers are understood in L/kg, so give the number only.

The compound listed as Cc1cn2c(-c3cn[nH]c3)cnc2c(Nc2cc(C(NC(C)(C)C)c3ccccn3)ns2)n1 (single isomer, unassigned; (+)) shows Vd equal to 2.5

----------
# collection of pIC50 values tested on UniProt:P00533
# Sequence (P00533 whole entry): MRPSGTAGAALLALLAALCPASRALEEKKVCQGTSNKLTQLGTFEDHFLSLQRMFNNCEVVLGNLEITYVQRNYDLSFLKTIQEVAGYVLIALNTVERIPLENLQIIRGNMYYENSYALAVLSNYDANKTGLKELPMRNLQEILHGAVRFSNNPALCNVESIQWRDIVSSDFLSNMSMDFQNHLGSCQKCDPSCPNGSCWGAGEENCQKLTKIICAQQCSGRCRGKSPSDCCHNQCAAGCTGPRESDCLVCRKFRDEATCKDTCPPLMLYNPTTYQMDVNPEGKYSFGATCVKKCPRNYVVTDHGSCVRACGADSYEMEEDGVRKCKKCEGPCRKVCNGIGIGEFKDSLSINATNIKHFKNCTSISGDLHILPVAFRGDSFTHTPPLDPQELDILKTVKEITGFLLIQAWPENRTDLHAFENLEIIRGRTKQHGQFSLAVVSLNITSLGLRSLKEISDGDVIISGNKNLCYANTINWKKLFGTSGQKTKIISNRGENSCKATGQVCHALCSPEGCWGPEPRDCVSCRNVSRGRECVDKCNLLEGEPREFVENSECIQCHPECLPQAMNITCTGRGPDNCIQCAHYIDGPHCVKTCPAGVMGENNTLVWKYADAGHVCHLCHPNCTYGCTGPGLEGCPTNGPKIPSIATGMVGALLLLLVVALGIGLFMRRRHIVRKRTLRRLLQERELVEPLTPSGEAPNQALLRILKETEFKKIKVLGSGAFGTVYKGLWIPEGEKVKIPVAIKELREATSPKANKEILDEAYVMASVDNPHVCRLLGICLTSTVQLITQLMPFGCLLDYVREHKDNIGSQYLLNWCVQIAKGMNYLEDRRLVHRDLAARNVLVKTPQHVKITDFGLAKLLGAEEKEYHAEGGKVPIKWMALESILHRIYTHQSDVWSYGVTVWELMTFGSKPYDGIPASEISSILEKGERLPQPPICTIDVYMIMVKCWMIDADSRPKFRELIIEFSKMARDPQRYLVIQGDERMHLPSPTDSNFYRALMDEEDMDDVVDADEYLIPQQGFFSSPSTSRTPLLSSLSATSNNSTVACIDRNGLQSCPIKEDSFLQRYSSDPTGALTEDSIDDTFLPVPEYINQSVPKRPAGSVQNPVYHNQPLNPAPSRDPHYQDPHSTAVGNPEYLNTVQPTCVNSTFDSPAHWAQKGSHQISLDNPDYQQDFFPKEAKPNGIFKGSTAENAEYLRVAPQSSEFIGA
pIC50: −log10 of the molar value.

Record Cc1cn2c(-c3cn[nH]c3)cnc2c(Nc2cc(Cc3ccccn3)ns2)n1 ; system UniProt:P00533; pIC50 = < 6.30

Here Cc1cn2c(-c3cn[nH]c3)cnc2c(Nc2cc(C(NC(C)(C)C)c3ccccn3)ns2)n1 (single isomer, unassigned; (+)) was tested on UniProt:P00533, and its pIC50 came to < 6.00

// compound CCN(CCO)Cc1cc(Nc2nc(C)cn3c(-c4cn[nH]c4)cnc23)sn1 , assay UniProt:P00533, pIC50 value: < 6.30

----------
Below, each entry is listed alongside its reported Vd.
Assay Remarks: Volume of distribution in monkey at 1 mg/kg, iv
Assay type: ADME, organism-based, Macaca mulatta
Measurement Setup: rhesus monkey, in vivo
Numeric answer only, unit L/kg assumed.

>>> measured_number("Cc1cn2c(-c3cn[nH]c3)cnc2c(Nc2cc(C(NC(C)(C)C)c3ccccn3)ns2)n1 (single isomer, unassigned; (+))")
1.3

Attention now turns to another entry.
Cc1cn2c(-c3cn[nH]c3)cnc2c(Nc2cc(Cc3ccccn3)ns2)n1 yielded Vd of 1

----------
Assay Remarks: Oral bioavailability in rat at 30 mg/kg
Type: ADME, organism-based
Measurement Setup: in vivo
Parameter: bioavailability (%)
Give the value in % but do not write % after it.

Input Cc1cn2c(-c3cn[nH]c3)cnc2c(Nc2cc(C(NC(C)(C)C)c3ccccn3)ns2)n1 (single isomer, unassigned; (+)) . Output bioavailability: 40

----------
Assay Remarks: AUC (0 to 48 hrs) in rat at 1 mg/kg, iv
Format: ADME, organism-based
Design: time < 48 hr, dose 1 mg/kg, route intravenous
Measurement Setup: in vivo
Parameter: AUC(0-t) at 48 h (µM·h)
# output: bare number, implied unit µM·h

Reported AUC(0-t) at 48 h ( Cc1cn2c(-c3cn[nH]c3)cnc2c(Nc2cc(Cc3ccccn3)ns2)n1 ) = 2.8

----------
Assay Remarks: Apparent permeability from apical to basolateral side in human intestinal Caco2 cells
Type: ADME, cell-based
Measurement Setup: Caco-2
Reported Papp A→B by item:
Give the value in ×10⁻⁶ cm/s but do not write ×10⁻⁶ cm/s after it.

Papp A→B reading for Cc1cn2c(-c3cn[nH]c3)cnc2c(Nc2cc(C(NC(C)(C)C)c3ccccn3)ns2)n1 (single isomer, unassigned; (+)) : 2.4

The compound listed as CCN(CCO)Cc1cc(Nc2nc(C)cn3c(-c4cn[nH]c4)cnc23)sn1 shows Papp A→B equal to 2.1

// recorded Papp A→B for Cc1cn2c(-c3cn[nH]c3)cnc2c(Nc2cc(Cc3ccccn3)ns2)n1 : 2.8

// recorded Papp A→B for Cc1cn2c(-c3cn[nH]c3)cnc2c(Nc2cc(Cc3cnccn3)ns2)n1 : 4.3
